Molecular target: p300 (Homo sapiens, UniProt Q09472)
Construct: host or cells: A549 P300 HiBit cells
Sequence (Q09472 whole entry): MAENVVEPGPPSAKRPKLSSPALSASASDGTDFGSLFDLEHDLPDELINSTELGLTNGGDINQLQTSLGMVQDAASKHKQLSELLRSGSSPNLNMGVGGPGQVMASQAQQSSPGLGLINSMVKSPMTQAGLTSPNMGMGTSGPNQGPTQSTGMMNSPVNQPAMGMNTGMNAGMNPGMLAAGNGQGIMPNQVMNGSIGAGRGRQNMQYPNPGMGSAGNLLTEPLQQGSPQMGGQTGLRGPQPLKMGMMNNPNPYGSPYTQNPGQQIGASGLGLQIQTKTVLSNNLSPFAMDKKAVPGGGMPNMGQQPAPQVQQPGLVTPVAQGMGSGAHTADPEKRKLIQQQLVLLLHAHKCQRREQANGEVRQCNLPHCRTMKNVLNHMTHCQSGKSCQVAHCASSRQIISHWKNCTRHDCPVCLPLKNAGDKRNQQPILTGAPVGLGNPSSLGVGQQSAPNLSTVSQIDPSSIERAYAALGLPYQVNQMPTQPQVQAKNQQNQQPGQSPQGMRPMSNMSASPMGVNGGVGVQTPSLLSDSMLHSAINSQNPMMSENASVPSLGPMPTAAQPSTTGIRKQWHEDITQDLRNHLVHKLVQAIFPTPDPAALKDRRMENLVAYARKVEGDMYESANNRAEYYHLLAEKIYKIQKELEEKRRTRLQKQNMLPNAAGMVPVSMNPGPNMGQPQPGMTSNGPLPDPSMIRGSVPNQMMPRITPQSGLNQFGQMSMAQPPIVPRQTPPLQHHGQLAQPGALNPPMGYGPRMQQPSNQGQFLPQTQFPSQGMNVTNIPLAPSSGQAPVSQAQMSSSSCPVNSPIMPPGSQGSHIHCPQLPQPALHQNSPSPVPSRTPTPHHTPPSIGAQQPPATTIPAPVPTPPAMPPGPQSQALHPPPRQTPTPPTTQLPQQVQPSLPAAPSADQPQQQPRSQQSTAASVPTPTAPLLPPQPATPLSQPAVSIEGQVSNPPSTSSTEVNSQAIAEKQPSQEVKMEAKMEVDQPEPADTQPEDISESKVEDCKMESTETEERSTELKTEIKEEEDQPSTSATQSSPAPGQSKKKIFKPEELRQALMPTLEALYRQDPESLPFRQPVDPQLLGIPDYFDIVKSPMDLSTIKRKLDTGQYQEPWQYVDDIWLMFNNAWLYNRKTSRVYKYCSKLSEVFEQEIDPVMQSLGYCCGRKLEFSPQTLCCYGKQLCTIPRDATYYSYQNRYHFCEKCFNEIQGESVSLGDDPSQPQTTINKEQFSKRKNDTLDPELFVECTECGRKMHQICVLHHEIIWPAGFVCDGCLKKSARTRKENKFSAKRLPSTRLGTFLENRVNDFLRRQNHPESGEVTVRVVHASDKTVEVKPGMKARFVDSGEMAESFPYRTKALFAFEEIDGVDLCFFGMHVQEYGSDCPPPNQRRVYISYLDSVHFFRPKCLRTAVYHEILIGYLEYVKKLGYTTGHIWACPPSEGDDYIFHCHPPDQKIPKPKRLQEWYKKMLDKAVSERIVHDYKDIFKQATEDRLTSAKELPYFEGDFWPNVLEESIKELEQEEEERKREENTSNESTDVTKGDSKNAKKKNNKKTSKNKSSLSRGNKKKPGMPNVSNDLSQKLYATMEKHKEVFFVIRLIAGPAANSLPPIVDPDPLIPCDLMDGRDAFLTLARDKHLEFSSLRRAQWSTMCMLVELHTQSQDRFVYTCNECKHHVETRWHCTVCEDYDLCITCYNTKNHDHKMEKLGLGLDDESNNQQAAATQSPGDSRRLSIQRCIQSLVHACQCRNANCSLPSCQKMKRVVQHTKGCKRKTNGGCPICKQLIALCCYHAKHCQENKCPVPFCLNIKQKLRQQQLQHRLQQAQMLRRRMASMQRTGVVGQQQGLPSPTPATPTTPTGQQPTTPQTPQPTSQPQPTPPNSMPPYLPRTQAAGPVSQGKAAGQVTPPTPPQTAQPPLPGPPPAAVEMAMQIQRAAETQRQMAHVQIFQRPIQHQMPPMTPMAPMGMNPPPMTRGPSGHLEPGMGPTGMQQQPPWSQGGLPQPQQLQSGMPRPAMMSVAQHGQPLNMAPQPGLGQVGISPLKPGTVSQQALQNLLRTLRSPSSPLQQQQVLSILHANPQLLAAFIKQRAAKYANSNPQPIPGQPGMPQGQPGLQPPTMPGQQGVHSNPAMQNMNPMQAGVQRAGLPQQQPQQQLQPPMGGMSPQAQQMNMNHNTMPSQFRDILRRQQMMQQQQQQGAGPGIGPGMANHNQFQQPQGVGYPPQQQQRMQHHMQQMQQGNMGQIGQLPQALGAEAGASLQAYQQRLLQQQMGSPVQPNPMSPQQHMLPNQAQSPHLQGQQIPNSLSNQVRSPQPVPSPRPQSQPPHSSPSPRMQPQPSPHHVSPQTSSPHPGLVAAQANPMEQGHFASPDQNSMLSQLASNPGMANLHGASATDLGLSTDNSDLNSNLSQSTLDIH
Assay: P300 degradation, HiBit technology in A549 P300 HiBit cells (2 h)
Format: cell-based
Settings: A549 P300 HiBit cells, 2 hrs post treatment
What DC50 was measured for each of the following?

Q: Given the molecule Cc1cc2c(N3CCCc4nc(-c5ccc(C(=O)NCC#Cc6ccc7occ([C@@H]8CCC(=O)NC8=O)c7c6)nc5)ncc43)cc(C3CCOCC3)cc2n(C)c1=O , what is its reported DC50?
Result: 1 to 9.9 nM

Q: Find the recorded DC50 belonging to Cc1cc2c(N3CCCc4nc(-c5ccc(C(=O)NCC#Cc6cc7c(C8CCC(=O)NC8=O)cccc7o6)nc5)ncc43)cc(C(C)C)nc2n(C)c1=O (stereo not drawn) and report it.
Result: 1 to 9.9 nM

Q: What measured DC50 goes with CN1Cc2c(-c3cccc4cc(-c5ccc(C(=O)NCC#Cc6ccc7cnn(C8CCC(=O)NC8=O)c7c6)nc5)ncc34)cc(C(C)(F)F)cc2N(C)C1=O (stereo not drawn) [Example B9] ?
Result: 1 to 9.9 nM

Q: Given the molecule Cc1cc(-c2ncc(N(C)c3cc(C(C)C)c4c(c3)n(C)c(=O)n4C)cn2)cnc1C(=O)NCC#Cc1ccc2occ(C3CCC(=O)NC3=O)c2c1 (stereo not drawn) , what is its reported DC50?
Result: 1 to 9.9 nM

Q: Returns the measured DC50 for the input molecule. Input: Cc1cc(-c2cc3c(cn2)N(c2cccc4c2cc(C)c(=O)n4C)CCO3)cnc1C(=O)NCC#Cc1ccc2occ(C3CCC(=O)NC3=O)c2c1 (stereo not drawn)
Result: 1 to 9.9 nM

Q: So what's the measured DC50 for this one? Cc1cc(-c2ccc(N(C)c3cc(C(C)C)c4c(c3)n(C)c(=O)n4C)cc2C(F)(F)F)cnc1C(=O)NCC#Cc1cccc(NC2CCC(=O)NC2=O)c1 (stereo not drawn)
Result: 10 to 99 nM

###

Provide the recorded DC50 for the entries that follow.
Target: p300 (Homo sapiens, UniProt Q09472)
Construct: host or cells: A549 P300 HiBit cells
Assay: P300 degradation, HiBit technology in A549 P300 HiBit cells (2 h)
Assay type: cell-based
Conditions: A549 P300 HiBit cells, 2 hrs post treatment

Q: Look up DC50: CCc1cc(-c2cccc3cc(-c4ccc(C(=O)NCC#Cc5cc(C)c6cnn(C7CCC(=O)NC7=O)c6c5)nc4)ncc23)c2cc(C)c(=O)n(C)c2c1 (stereo not drawn)
Result: 10 to 99 nM

Q: Sample Cc1cc2c(N3CCOc4cc(-c5ccc(C(=O)NCC#Cc6ccc7occ(C8CCC(=O)NC8=O)c7c6)nc5)c(F)cc43)cccc2n(C)c1=O (stereo not drawn) — what was its DC50?
Result: 1 to 9.9 nM

Q: Fill blank: measured DC50 of the compound Cc1cc2c(-c3cccc4cc(-c5ccc(C(=O)NCC#Cc6ccc7occ(C8CCC(=O)NC8=O)c7c6)nc5)ncc34)nc(OC(C)C)cc2n(C)c1=O (stereo not drawn) is ____.
Result: 1 to 9.9 nM

###

Field: DC50. Provide a value for each of the compounds that follow.
Biological target: p300 (Homo sapiens, UniProt Q09472)
Construct: host or cells: A549 P300 HiBit cells
Experiment: P300 degradation, HiBit technology in A549 P300 HiBit cells (2 h)
Format: cell-based
Conditions: A549 P300 HiBit cells, 2 hrs post treatment

Q: Param readout= DC50; system= p300 (Homo sapiens, UniProt Q09472); entry= CC(C)c1cc(N2CCOc3cc(-c4ccc(C(=O)NCC#Cc5ccc6occ(C7CCC(=O)NC7=O)c6c5)nc4)ccc32)cc2c1n(C)c(=O)n2C (stereo not drawn) [Example A121] ; returns value.
Result: 10 to 99 nM

Q: Record Cc1cc(N2CCN(C)c3nc(-c4ccc(C(=O)NCC#Cc5cc6c(C7CCC(=O)NC7=O)cccc6o5)nc4)ncc32)cc2c1n(C)c(=O)n2C (stereo not drawn) [Example A219] : what is its DC50 with p300 (Homo sapiens, UniProt Q09472)?
Result: < 1 nM

Q: Lookup: DC50 / p300 (Homo sapiens, UniProt Q09472) / Cc1cc(-c2ncc(N(C)c3ccc4c(c3)n(C)c(=O)n4C)cn2)cnc1C(=O)NCC#Cc1ccc2occ(C3CCC(=O)NC3=O)c2c1 (stereo not drawn) [Example A103]
Result: 1 to 9.9 nM

###

Task for the reader: assign each of the following compounds its reported DC50.
Molecular target: p300 (Homo sapiens, UniProt Q09472)
Construct: host or cells: A549 P300 HiBit cells
Experiment: P300 degradation, HiBit technology in A549 P300 HiBit cells (2 h)
Type: cell-based
Details: A549 P300 HiBit cells, 2 hrs post treatment

Q: For p300 (Homo sapiens, UniProt Q09472), provide DC50 of CC(C)c1cc(N2CCCc3nc(-c4ccc(C(=O)NCC#Cc5ccc6occ(C7CCC(=O)NC7=O)c6c5)nc4)ncc32)cc2c1n(C)c(=O)n2C (stereo not drawn) please.
Result: 1 to 9.9 nM

Q: Find DC50 (p300 (Homo sapiens, UniProt Q09472)) for the entry CC(C)c1cc(-c2cccc3cc(-c4ccc(C(=O)NCC#Cc5cc6c(ccn6C6CCC(=O)NC6=O)cn5)nc4)ncc23)cc2c1n(C)c(=O)n2C (stereo not drawn)
Result: 10 to 99 nM

Q: DC50 of Cc1cc2c(N3CCN(C)c4nc(-c5ccc(C(=O)NCC#Cc6cc7c(C8CCC(=O)NC8=O)cccc7o6)nc5)ncc43)cccc2n(C)c1=O (stereo not drawn) on p300 (Homo sapiens, UniProt Q09472)?
Result: 1 to 9.9 nM

Q: Item: Cc1cc(-c2ccc3c(c2)n(C)c(=O)n3C)c2cnc(-c3ccc(C(=O)NCC#Cc4ccc5occ(C6CCC(=O)NC6=O)c5c4)nc3)cc2c1 (stereo not drawn) Test system: p300 (Homo sapiens, UniProt Q09472) Read-out: DC50 Value: ?
Result: 10 to 99 nM

Q: Kindly state the measured DC50 obtained for Cn1c(=O)n(C)c2cc(C3=CC(C)(C)Oc4cc(-c5ccc(C(=O)NCC#Cc6cc7c(C8CCC(=O)NC8=O)cccc7o6)nc5)ncc43)ccc21 (stereo not drawn) with p300 (Homo sapiens, UniProt Q09472).
Result: 1 to 9.9 nM

Q: Recall the recorded DC50 for Cc1cc(-c2ncc3c(n2)OCCN3c2ccc3c(c2)n(C)c(=O)n3C)cnc1C(=O)NCC#Cc1cc2c([C@@H]3CCC(=O)NC3=O)cccc2o1 with p300 (Homo sapiens, UniProt Q09472) and state it.
Result: 10 to 99 nM

Q: What measured DC50 is associated with Cc1cc2c(N3CCCc4cc(-c5ccc(C(=O)NCC#Cc6ccc7occ(C8CCC(=O)NC8=O)c7c6)nc5)c(F)cc43)cc(C3CCOCC3)cc2n(C)c1=O (stereo not drawn) on p300 (Homo sapiens, UniProt Q09472)?
Result: 1 to 9.9 nM

Q: API: value(readout=DC50, system=p300 (Homo sapiens, UniProt Q09472)) for record CN1C2CCC1CN(c1nc(-c3cccc4cc(-c5ccc(C(=O)NCC#Cc6ccc7occ(C8CCC(=O)NC8=O)c7c6)nc5)ncc34)cc3c1n(C)c(=O)n3C)C2 (stereo not drawn)
Result: 1 to 9.9 nM

Q: GET /values?readout=DC50&system=p300 (Homo sapiens, UniProt Q09472)&item= CCc1cc(-c2cccc3cc(-c4ccc(C(=O)NCC#Cc5ccc6ncn(C7CCC(=O)NC7=O)c6c5)nc4)ncc23)c2cc(C)c(=O)n(C)c2c1 (stereo not drawn)
Result: 1 to 9.9 nM

Q: Lab request: please report DC50 under test system p300 (Homo sapiens, UniProt Q09472) for CC(C)c1cc(-c2cccc3cc(-c4ccc(C(=O)NCC#Cc5cc6c(C7CCC(=O)NC7=O)cccc6o5)nc4)ncc23)cc2c1n(C)c(=O)n2C (stereo not drawn)
Result: 1 to 9.9 nM

Q: Give p300 (Homo sapiens, UniProt Q09472) DC50 for CC(C)c1cc(-c2cccc3cc(-c4ccc(C(=O)NCC#Cc5ccc6[nH]nc(C7CCC(=O)NC7=O)c6c5)nc4)ncc23)cc2c1n(C)c(=O)n2C (stereo not drawn)
Result: 1 to 9.9 nM

Q: Requested read-out DC50, target or system p300 (Homo sapiens, UniProt Q09472), entry Cc1cc(-c2ncc(Nc3cc(C4CCOCC4)c4c(c3)n(C)c(=O)n4C)cn2)cnc1C(=O)NCC#Cc1cc2c(C3CCC(=O)NC3=O)cccc2o1 (stereo not drawn)
Result: 10 to 99 nM

###

What Dmax was measured for each of the following?
Target: p300 (Homo sapiens, UniProt Q09472)
Construct: host or cells: A549 P300 HiBit cells
Experiment: P300 degradation, HiBit technology in A549 P300 HiBit cells (2 h)
Format: cell-based
Conditions: A549, A549 P300 HiBit cells, 2 hrs post treatment

Q: Request the reported Dmax associated with CC(C)c1cc(-c2cccc3cc(-c4ccc(C(=O)NCC#Cc5ccc6cnn(C7CCC(=O)NC7=O)c6c5F)nc4)ncc23)cc2c1n(C)c(=O)n2C (stereo not drawn) [Example A1]
Result: > 80%

Q: Which Dmax value is on record for CCc1cc(N2CCCc3nc(-c4ccc(C(=O)NCC#Cc5ccc6occ(C7CCC(=O)NC7=O)c6c5)nc4)ncc32)c2cc(C)c(=O)n(C)c2c1 (stereo not drawn) [Example B43] ?
Result: > 80%

Q: If you can, please state the reported Dmax value of Cc1cc(-c2cc3cccc(-c4cc(F)c5c(c4)n(C)c(=O)n5C)c3cn2)cnc1C(=O)NCC#Cc1ccc2occ(C3CCC(=O)NC3=O)c2c1 (stereo not drawn) [Example A66] .
Result: > 80%

Q: What does the data say about its Dmax? Entry: Cc1cc(-c2ncc(N(C)c3ccc4c(c3)n(C)c(=O)n4C)cn2)cnc1C(=O)NCC#Cc1ccc2occ(C3CCC(=O)NC3=O)c2c1 (stereo not drawn) [Example A103]
Result: 60 to 79%

Q: Which Dmax is listed for CC(C)c1cc(-c2cccc3cc(-c4ccc(C(=O)NCC#Cc5ccc6c(c5)c(C5CCC(=O)NC5=O)nn6C)nc4)ncc23)cc2c1n(C)c(=O)n2C (stereo not drawn) [Example A5] ?
Result: > 80%

Q: Recorded Dmax of Cn1c(=O)n(C)c2cc(N3CCOc4nc(-c5ccc(C(=O)NCC#Cc6ccc7occ(C89CC(C8)C(=O)NC9=O)c7c6)nc5)ncc43)ccc21 [Example A178] , please.
Result: 20 to 39%

Q: Form field: reported Dmax of Cn1c(=O)n(C)c2cc(-c3cccc4cc(-c5ccc(C(=O)NCC#Cc6ccc7nnn(C8CCC(=O)NC8=O)c7c6)nc5)ncc34)ccc21 (stereo not drawn) [Example A163]
Result: > 80%

Q: Given the compound Cc1cc(-c2cc3cccc(-c4ccc5c(c4)n(C)c(=O)n5C)c3cn2)cnc1C(=O)NCC#Cc1ccc2occ([C@@H]3CCC(=O)NC3=O)c2c1 [Example A61] , what is its reported Dmax?
Result: > 80%

Q: For the compound Cc1cc2c(N3CCCc4cc(-c5ccc(C(=O)NCC#Cc6cc7c(C8CCC(=O)NC8=O)cccc7o6)nc5)nnc43)cccc2n(C)c1=O (stereo not drawn) [Example B34] , what Dmax is on record?
Result: > 80%

Q: Quick one: Dmax of Cn1c(=O)n(C)c2ncc(N3CCOc4nc(-c5ccc(C(=O)NCC#Cc6cc7c(C8CCC(=O)NC8=O)cccc7o6)nc5)ncc43)cc21 (stereo not drawn) [Example A268] ?
Result: 20 to 39%

Q: Recorded Dmax of Cn1c(=O)n(C)c2cc(N3CCCc4nc(-c5ccc(C(=O)NCC#Cc6ccc7occ(C89CC(C8)C(=O)NC9=O)c7c6)nc5)ncc43)ccc21 [Example A215] , please.
Result: 60 to 79%

Q: Give the measured Dmax of Cc1cc(-c2ncc(N(C)c3cc(C4CCOCC4)cc4c3cc(C)c(=O)n4C)cn2)cnc1C(=O)NCC#Cc1cc2c(C3CCC(=O)NC3=O)cccc2o1 (stereo not drawn) [Example B59] .
Result: > 80%
